Data origin, for the record: paper PMC9482650

Would you mind telling me the reported pKd of each entry?
# SYSTEM NAME: T1, LIN7B, Q9HAP6
# T1 sequence (Q9HAP6 88-185, limits assumed, looked up): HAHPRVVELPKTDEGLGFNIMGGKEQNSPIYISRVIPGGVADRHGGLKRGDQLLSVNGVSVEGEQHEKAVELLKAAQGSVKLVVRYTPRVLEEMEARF
# PROTOCOL DETAILS: holdup assay
# Parameters: key: below the threshold = too weak to quantify, mostly under pKd 3.1 to 4
# APPLIED CONDITIONS: plain residues with an end cap or a label only (N-terminal biotin on a linker: ado-ado)
Just the number, please, no unit after it.

Task item: Quick one: pKd for AQRARSPSDV [GPR12, P47775] ?
Reply: 3.75

Task item: Quick one: pKd for SVTSERETNI [SLC16A7, O60669] ?
Reply: 3.62

Task item: Quick one: pKd for QSGLYESEEL [MYOT, Q9UBF9] ?
Reply: 3.66

Task item: Quick one: pKd for EDPRVEVTQF [SLC22A9, Q8IVM8] ?
Reply: 3.83

Task item: Quick one: pKd for DGVNEKVSCV [HTR2A, P28223] ?
Reply: 3.79

Task item: Quick one: pKd for PYPTADHMLA [JUP, P14923] ?
Reply: 3.6

Task item: Quick one: pKd for SLNANEVEWF [RNF130, Q86XS8] ?
Reply: 3.89
